Species on record: Rattus norvegicus
Test: Open TG-GATES - Regimen: Daily Repeat
Type: toxicity, organism-based, Sprague-Dawley
Parameters: regimen Daily Repeat, gender Male, age 6 weeks
Details: in vivo, po, 0 mg/kg, 72 h, tissue Kidney, route gavage, dose level Control, time 3 day
Reported values of KIDNEY_L for individual entries
observable: KIDNEY_L (g)

compound: CCCCNC(=O)NS(=O)(=O)c1ccc(C)cc1 [TOLBUTAMIDE]
result value: 1
//
compound: Nc1ccc(Cc2ccc(N)cc2)cc1
result value: 1
//
compound: O=c1ccc2ccccc2o1
result value: 0.9
//
compound: CC(=O)[C@@]1(O)CC[C@H]2[C@@H]3C=C(Cl)C4=CC(=O)CC[C@]4(C)[C@H]3CC[C@@]21C
result value: 1
//
compound: COc1ccc([C@@H]2Sc3ccccc3N(CCN(C)C)C(=O)[C@@H]2OC(C)=O)cc1
result value: 1
